Values compiled from the Immune Epitope Database (IEDB).

measured on: HLA-A*02:16
experimental details: IEDB peptide-MHC binding, purified MHC/competitive/fluorescence; filed as Kd, often an IC50 or EC50 that approximates it; bounds were set here for any values at or beyond the usual limits of such assays
condition label: source organism: Vibrio parahaemolyticus RIMD 2210633
pKd: −log10 of the molar value.
outcome measure: pKd

Exam item: Specify the recorded pKd for `GTVPTDNPF` , system: HLA-A*02:16.
Marked response: ≤ 4.70

----------
measured on: HLA-A*33:01
experimental details: IEDB peptide-MHC binding, purified MHC/competitive/radioactivity; filed as Kd, often an IC50 or EC50 that approximates it; bounds were set here for any values at or beyond the usual limits of such assays
condition label: source organism: Dengue virus 2 16681-PDK53
outcome measure: pKd
Interpret pKd as the negative base-10 log of the concentration measured in mol/L.

Exam item: Specify the recorded pKd for `ENKAWLVHR` , system: HLA-A*33:01.
Marked response: 8.15
